Values were extracted from ChEMBL document CHEMBL1961873.

inhibition for assorted compounds
# ASSAY_SYSTEM: Fibroblast growth factor receptor 2 (Homo sapiens) (UniProt P21802);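 also: values are mean percent inhibition of FGFR2 kinase, measured within the GSK Published Kinase Inhibitor Set (PKIS) screening panel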
# Sequence (P21802 22-821 limits assumed): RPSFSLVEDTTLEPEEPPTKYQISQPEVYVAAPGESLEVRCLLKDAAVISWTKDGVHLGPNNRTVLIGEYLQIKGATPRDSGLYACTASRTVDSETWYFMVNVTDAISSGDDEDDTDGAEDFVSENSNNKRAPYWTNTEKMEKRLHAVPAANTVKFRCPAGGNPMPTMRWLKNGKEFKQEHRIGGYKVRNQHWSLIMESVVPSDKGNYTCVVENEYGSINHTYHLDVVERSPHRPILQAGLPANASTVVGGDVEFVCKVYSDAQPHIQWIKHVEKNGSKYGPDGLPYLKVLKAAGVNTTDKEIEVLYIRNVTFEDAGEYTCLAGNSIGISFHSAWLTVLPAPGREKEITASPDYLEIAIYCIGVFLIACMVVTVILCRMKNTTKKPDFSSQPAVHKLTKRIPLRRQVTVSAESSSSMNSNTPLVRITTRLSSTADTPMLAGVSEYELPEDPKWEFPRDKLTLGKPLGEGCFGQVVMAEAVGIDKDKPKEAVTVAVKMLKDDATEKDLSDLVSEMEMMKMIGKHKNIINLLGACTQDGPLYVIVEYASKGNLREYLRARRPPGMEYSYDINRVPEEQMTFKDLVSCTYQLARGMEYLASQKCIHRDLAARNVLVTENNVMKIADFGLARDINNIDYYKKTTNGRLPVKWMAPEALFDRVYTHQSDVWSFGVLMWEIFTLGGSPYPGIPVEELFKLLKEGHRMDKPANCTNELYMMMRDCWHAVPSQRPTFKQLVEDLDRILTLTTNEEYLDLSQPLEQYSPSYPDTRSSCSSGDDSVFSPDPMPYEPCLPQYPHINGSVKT
# REPORTED_CONDITIONS: at 0.1 µM
Return type: number; implicit unit %.

Recorded results for 3 compounds are shown here.
{"columns": ["COMPOUND", "inhibition / %"],
 "data": [
  ["CCn1c(-c2nonc2N)nc2c(C#CC(C)(C)O)nc(OC[C@@H](N)c3ccccc3)cc21", -3.01],
  ["COc1ccc2cc(-c3c(-c4ccncc4)nc(-c4ccc([S+](C)[O-])cc4)n3C)ccc2c1 (stereo unspecified)", 3.38],
  ["Fc1cccc(COc2ccc(Nc3ncnc4sc(-c5cccs5)cc34)cc2Cl)c1", 2.92]
]}

Lookup: inhibition / Fibroblast growth factor receptor 2 (Homo sapiens) (UniProt P21802) / `Nc1nc(-c2ccc3c(c2)C(=Cc2cc(Br)c(O)c(Br)c2)C(=O)N3)cs1` -1.12

Next: `COc1cc2ncn(-c3cc(O[C@@H](C)c4ccccc4Cl)c(C(N)=O)s3)c2cc1OC` 7.05

Next: `N#Cc1c(NC(=O)c2cccc3ccccc23)sc2c1CCCC2` 1.68

Next: `CN1CCC(C(=O)Nc2n[nH]c3nnc(-c4ccccc4)cc23)CC1` 5.82

Next: `COc1ccccc1Nc1ncc(-c2ccccc2)o1` 6.35

---

# ASSAY_SYSTEM: Insulin receptor (Homo sapiens);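 also: reported values are averages of replicate inhibition measurements against the insulin receptor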
# REPORTED_CONDITIONS: at 0.1 µM
READOUT_LABEL: inhibition (%)
Return type: number; implicit unit %.

{"columns": ["SMILES_NOTATION", "inhibition [%]"],
 "data": [
  ["Cc1nn(C)c2cc(N(C)c3ccnc(Nc4cccc(S(N)(=O)=O)c4)n3)ccc12", 8.17],
  ["N#Cc1c(NC(=O)c2cccc3ccccc23)sc2c1CCCC2", 5.97],
  ["O=C1NC(=O)C(c2ccccc2Cl)=C1Nc1cccc(O)c1", 0.88],
  ["CCn1c(-c2nonc2N)nc2cncc(C(=O)N3CCNCC3)c21", 10.5],
  ["CS(=O)(=O)CCN(CC#N)Cc1ccc(-c2ccc3ncnc(Nc4ccc(OCc5cccc(F)c5)c(Cl)c4)c3c2)o1", 4.4],
  ["COC(=O)Nc1nc2cc(Oc3ccc(NC(=O)Nc4cccc(C(=O)O)c4)cc3)ccc2[nH]1", 2.72],
  ["CCn1c(-c2nonc2N)nc2ccncc21", 3.48],
  ["COc1cc2ncn(-c3cc(OCc4ccccc4C(F)(F)F)c(C(N)=O)s3)c2cc1OC", -1.5]
]}

Lookup: inhibition / Insulin receptor (Homo sapiens) / `CC(C)=Cc1cccc2c1/C(=N/Nc1ccc(S(N)(=O)=O)cc1)C(=O)N2` 1.28

Next: `CS(=O)(=O)CCNCc1ccc(-c2ccc3ncnc(Nc4ccc(OCc5ccccc5)c(Cl)c4)c3c2)o1` 1.79

Next: `CN(C)c1cc2c(Nc3ccc4nc(Cc5ccccc5)[nH]c4c3)ncnc2cn1` 7.56

---

inhibition for assorted compounds
# ASSAY_SYSTEM: RAC-gamma serine/threonine-protein kinase (Homo sapiens) (UniProt Q9Y243)
# Sequence (Q9Y243 whole entry): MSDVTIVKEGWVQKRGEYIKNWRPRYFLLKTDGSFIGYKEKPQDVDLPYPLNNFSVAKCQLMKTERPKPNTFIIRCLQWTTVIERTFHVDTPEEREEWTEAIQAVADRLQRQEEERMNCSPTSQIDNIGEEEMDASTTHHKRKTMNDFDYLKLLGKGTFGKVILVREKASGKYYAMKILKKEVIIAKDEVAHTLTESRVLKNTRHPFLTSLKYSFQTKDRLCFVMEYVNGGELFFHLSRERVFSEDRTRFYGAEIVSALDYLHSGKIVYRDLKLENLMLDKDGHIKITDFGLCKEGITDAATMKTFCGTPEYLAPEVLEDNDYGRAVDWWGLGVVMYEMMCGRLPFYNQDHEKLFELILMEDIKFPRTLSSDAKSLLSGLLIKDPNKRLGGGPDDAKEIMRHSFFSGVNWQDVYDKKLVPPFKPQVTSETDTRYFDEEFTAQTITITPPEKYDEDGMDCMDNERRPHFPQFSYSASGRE
# REPORTED_CONDITIONS: at 0.1 µM
# Description: GSK_PKIS: AKT3 mean inhibition at 0.1 uM [Nanosyn]
Return type: number; implicit unit %.

{"columns": ["COMPOUND", "ASSAY_SYSTEM", "READOUT_LABEL", "QUANTITATIVE_READOUT"],
 "data": [
  ["COc1ccc(-c2ccncc2)cc1C(N)=O", "RAC-gamma serine/threonine-protein kinase (Homo sapiens) (UniProt Q9Y243)", "inhibition", 1.15],
  ["CCCN1CCC=C(c2ccc(Nc3nc(Nc4ccccc4C(N)=O)c4cc[nH]c4n3)c(C)c2)C1", "RAC-gamma serine/threonine-protein kinase (Homo sapiens) (UniProt Q9Y243)", "inhibition", -0.2]
]}

Lookup: inhibition / RAC-gamma serine/threonine-protein kinase (Homo sapiens) (UniProt Q9Y243) / `COc1cc(C=NNc2ncnc3c2cnn3-c2ccccc2)ccc1O` 1.08

Next: `COc1cc2c(cc1Nc1nc(N3CCc4ccccc43)c3cc[nH]c3n1)N(C(=O)CN(C)C)CC2` 1.23

Next: `N#Cc1c(NC(=O)c2cccc3ccccc23)sc2c1CCCC2` 1.33
